# experimental system: Recombinant human his-tagged IGF R extracellular domain protein (human) (UniProt P08069)
# measurement protocol: SPR, Ab captured via anti-huIgG Fc, dissociation at pH 6
quantity kind: pKd
On this scale, pKd is minus log10 of a concentration expressed in M (mol/L).

Here's what some known entries look like.
VRDN-02001 (antibody, V domains shown) VH: QVQLQESGPGLVKPSETLSLTCTVSHYSITGGYLWNWIRQPPGKGLEWIGYISYDGTNNYKPSLKDRVTISRDTSKNQFSLKLSSVTAADTAVYYCARYGRVFFDYWGQGTLVTVSS VL: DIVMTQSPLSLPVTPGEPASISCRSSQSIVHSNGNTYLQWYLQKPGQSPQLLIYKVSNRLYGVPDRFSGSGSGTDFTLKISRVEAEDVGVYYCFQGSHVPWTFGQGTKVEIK; 8.92
VRDN-02013 (antibody, V domains shown) VH: QVQLQESGPGLVKPSETLSLTCTVSGYSITGGYLWNWIRQPPGKGLEWIGYHSYDGTNNYKPSLKDRVTISRDTSKNQFSLKLSSVTAADTAVYYCARYGRVFFDYWGQGTLVTVSS VL: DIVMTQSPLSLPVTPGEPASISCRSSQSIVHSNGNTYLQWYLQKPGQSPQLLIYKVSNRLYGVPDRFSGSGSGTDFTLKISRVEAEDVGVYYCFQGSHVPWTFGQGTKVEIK; 8.93
VRDN-02004 (antibody, V domains shown) VH: QVQLQESGPGLVKPSETLSLTCTVSGYSHTGGYLWNWIRQPPGKGLEWIGYISYDGTNNYKPSLKDRVTISRDTSKNQFSLKLSSVTAADTAVYYCARYGRVFFDYWGQGTLVTVSS VL: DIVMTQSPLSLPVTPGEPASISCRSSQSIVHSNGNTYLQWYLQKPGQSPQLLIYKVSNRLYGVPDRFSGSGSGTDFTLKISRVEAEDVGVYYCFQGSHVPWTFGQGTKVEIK; 8.21
VRDN-02027 (antibody, V domains shown) VH: QVQLQESGPGLVKPSETLSLTCTVSGYSITGGYLWNWIRQPPGKGLEWIGYISYDGTNNYKPSLKDRVTISRDTSKNQFSLKLSSVTAADTAVYYCARYGRVFFHYWGQGTLVTVSS VL: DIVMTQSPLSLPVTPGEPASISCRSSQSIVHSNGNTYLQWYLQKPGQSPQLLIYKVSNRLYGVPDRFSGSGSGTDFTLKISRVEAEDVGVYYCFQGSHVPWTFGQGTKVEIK; 8.55

Could you now consider this next binder?
Entry VRDN-02066 (antibody, V domains shown) VH: QVQLQESGPGLVKPSETLSLTCTVSGYSITGGYLWNWIRQPPGKGLEWIGYISYHGTNNYKPSLKDRVTISRDTSKNQFSLKLSSVTAADTAVYYCARYGRVFFDYWGQGTLVTVSS VL: DIVMTQSPLSLPVTPGEPASISCRSSQSIVHSNGNTYLQWYLQKPGQSPQLLIYKVSNRLYGVPDRFSGSGSGTDFTLKISRVEAEDVGVYYCFQGSHVHWTFGQGTKVEIK needs its pKd filled in; supply it.
9.53
